- measurement_description: Cytotoxicity against mouse NIH3T3 cells assessed as survival rate at 10 uM measured after 24 hrs by CCK-8 assay relative to control
- Type: toxicity, cell-based
- recorded_conditions: read-out: Survival
Record form. Attribute: viability at 24 h, 10 µM. Fill in for each entry.
Enter your answer as a number in %; do not include the unit.

The reported viability at 24 h, 10 µM of the compound CCCCCCCC(=O)NCc1ccc(O)c(O)c1 was 133

Per the record, COc1ccc(CCC(=O)CC/C=C/c2ccccc2)cc1 has viability at 24 h, 10 µM of 38.8

Notebook: COc1cc(/C=C/C(O)CC(=O)/C=C/c2ccc(O)cc2)ccc1O (stereo not drawn) , viability at 24 h, 10 µM read as 88.9

Consider COc1ccc(CCC(/C=C/C=C/c2ccccc2)OC)cc1O (stereo not drawn) . Its measured viability at 24 h, 10 µM is 93.2

Value of measured viability at 24 h, 10 µM for the entry OC(/C=C/C=C/c1ccccc1)CCc1ccccc1 (stereo not drawn) : 119

According to the records, this compound CC(=O)Oc1ccc(CNC(=O)CC(C)C)cc1OC(C)=O displays viability at 24 h, 10 µM of 124

// viability at 24 h, 10 µM value for COc1ccc(CNC(=O)CC(C)C)cc1OC : 88.2

For this compound ( Oc1ccc(/C=C/CCC(O)CCc2ccc(O)cc2)cc1 (stereo not drawn) ), measured viability at 24 h, 10 µM is 132

The compound O=C(CCCCc1ccccc1)NCc1ccc(O)c(O)c1 showed viability at 24 h, 10 µM equal to 118

Looking up O=C(CCCCc1ccccc1)CCc1ccccc1 , I see its viability at 24 h, 10 µM listed as 94.1

Value of viability at 24 h, 10 µM reported for the compound O=C(CC/C=C/c1ccccc1)CCc1ccccc1 is -1.47

Entry CCCCCC(=O)NCc1ccc(O)c(O)c1 , viability at 24 h, 10 µM reported as 118

For this compound ( O=C(CC/C=C/c1ccccc1)CCc1ccc(O)cc1 ), measured viability at 24 h, 10 µM is -3.97

Short answer for CCCCCCCCC(=O)NCc1ccc(O)c(OC)c1 [NONIVAMIDE] : viability at 24 h, 10 µM was 92

Lab note: measured viability at 24 h, 10 µM of CC(=O)Oc1ccc(CCC(CCCCc2ccccc2)OC(C)=O)cc1OC(C)=O (stereo not drawn) was 111

Entry COC(=O)c1ccc2c(c1)NC(=O)/C2=C(\Nc1ccc(N(C)C(=O)CN2CCN(C)CC2)cc1)c1ccccc1 ; viability at 24 h, 10 µM = 20.5

GET /value?item= CCCCC(=O)NCc1ccc(O)c(O)c1 &field=viability at 24 h, 10 µM returns 123

get_value(item= CC(=O)Oc1ccc(CNC(=O)CCCCc2ccccc2)cc1OC(C)=O , readout=viability at 24 h, 10 µM) returns 129
